Tested on: HeLa Kyoto;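 note: synchronized HeLa Kyoto cells, proteins quantified by TMT10plex mass spectrometry, three biological replicates, mitosis taken 0.5 h after nocodazole release, G1/S directly after double thymidine block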
Assay: thermal stability score vs G1/S (z-score of summed log2 fold changes over temperatures); higher = more thermally stable than in G1/S
Conditions: cell cycle stage: early G1 (4.5 h after nocodazole release)
Please enter yes where thermal stability score is greater than or equal to -2, and no where it is lower.

* MGKIALQLKATLENITNLRPVGEDFRWYLKMKCGNCGEISDKWQYIRLMDSVALKGGRGSASMVQKCKLCARENSIEILSSTIKPYNAEDNENFKTIVEFECRGLEPVDFQPQAGFAAEGVESGTAFSDINLQEKDWTDYDEKAQESVGIYEVTHQFVKC [C1ORF123] | yes
* MAMLVLVPGRVMRPLGGQLWRFLPRGLEFWGPAEGTARVLLRQFCARQAEAWRASGRPGYCLGTRPLSTARPPPPWSQKGPGDSTRPSKPGPVSWKSLAITFAIGGALLAGMKHVKKEKAEKLEKERQRHIGKPLLGGPFSLTTHTGERKTDKDYLGQWLLIYFGFTHCPDVCPEELEKMIQVVDEIDSITTLPDLTPLFISIDPERDTKEAIANYVKEFSPKLVGLTGTREEVDQVARAYRVYYSPGPKDEDEDYIVDHTIIMYLIGPDGEFLDYFGQNKRKGEIAASIATHMRPYRKKS [SCO1] | yes
* MVCGGFACSKNCLCALNLLYTLVSLLLIGIAAWGIGFGLISSLRVVGVVIAVGIFLFLIALVGLIGAVKHHQVLLFFYMIILLLVFIVQFSVSCACLALNQEQQGQLLEVGWNNTASARNDIQRNLNCCGFRSVNPNDTCLASCVKSDHSCSPCAPIIGEYAGEVLRFVGGIGLFFSFTEILGVWLTYRYRNQKDPRANPSAFL [TSPAN13] | yes
* MSSFSESALEKKLSELSNSQQSVQTLSLWLIHHRKHAGPIVSVWHRELRKAKSNRKLTFLYLANDVIQNSKRKGPEFTREFESVLVDAFSHVAREADEGCKKPLERLLNIWQERSVYGGEFIQQLKLSMEDSKSPPPKATEEKKSLKRTFQQIQEEEDDDYPGSYSPQDPSAGPLLTEELIKALQDLENAASGDATVRQKIASLPQEVQDVSLLEKITDKEAAERLSKTVDEACLLLAEYNGRLAAELEDRRQLARMLVEYTQNQKDVLSEKEKKLEEYKQKLARVTQVRKELKSHIQSLPDLSLLPNVTGGLAPLPSAGDLFSTD [RPRD1B] | yes
* MAAQKDQQKDAEAEGLSGTTLLPKLIPSGAGREWLERRRATIRPWSTFVDQQRFSRPRNLGELCQRLVRNVEYYQSNYVFVFLGLILYCVVTSPMLLVALAVFFGACYILYLRTLESKLVLFGREVSPAHQYALAGGISFPFFWLAGAGSAVFWVLGATLVVIGSHAAFHQIEAVDGEELQMEPV [RABAC1] | yes
* MELWPCLAAALLLLLLLVQLSRAAEFYAKVALYCALCFTVSAVASLVCLLRHGGRTVENMSIIGWFVRSFKYFYGLRFEVRDPRRLQEARPCVIVSNHQSILDMMGLMEVLPERCVQIAKRELLFLGPVGLIMYLGGVFFINRQRSSTAMTVMADLGERMVRENLKVWIYPEGTRNDNGDLLPFKKGAFYLAVQAQVPIVPVVYSSFSSFYNTKKKFFTSGTVTVQVLEAIPTSGLTAADVPALVDTCHRAMRTTFLHISKTPQENGATAGSGVQPAQ [AGPAT2] | yes

q: Is it the case that MACAEFSFHVPSLEELAGVMQKGLKDNFADVQVSVVDCPDLTKEPFTFPVKGICGKTRIAEVGGVPYLLPLVNQKKVYDLNKIAKEIKLPGAFILGAGAGPFQTLGFNSEFMPVIQTESEHKPPVNGSYFAHVNPADGGCLLEKYSEKCHDFQCALLANLFASEGQPGKVIEVKAKRRTGPLNFVTCMRETLEKHYGNKPIGMGGTFIIQKGKVKSHIMPAEFSSCPLNSDEEVNKWLHFYEMKAPLVCLPVFVSRDPGFDLRLEHTHFFSRHGEGGHYHYDTTPDIVEYLGYFLPAEFLYRIDQPKETHSIGRD [C11ORF54] has thermal stability score reaching or exceeding -2?
a: no

q: Also need MPEEGSGCSVRRRPYGCVLRAALVPLVAGLVICLVVCIQRFAQAQQQLPLESLGWDVAELQLNHTGPQQDPRLYWQGGPALGRSFLHGPELDKGQLRIHRDGIYMVHIQVTLAICSSTTASRHHPTTLAVGICSPASRSISLLRLSFHQGCTIASQRLTPLARGDTLCTNLTGTLLPSRNTDETFFGVQWVRP [CD70] , thanks.
a: no

q: Entry MARNAEKAMTALARFRQAQLEEGKVKERRPFLASECTELPKAEKWRRQIIGEISKKVAQIQNAGLGEFRIRDLNDEINKLLREKGHWEVRIKELGGPDYGKVGPKMLDHEGKEVPGNRGYKYFGAAKDLPGVRELFEKEPLPPPRKTRAELMKAIDFEYYGYLDEDDGVIVPLEQEYEKKLRAELVEKWKAEREARLARGEKEEEEEEEEEINIYAVTEEESDEEGSQEKGGDDSQQKFIAHVPVPSQQEIEEALVRRKKMELLQKYASETLQAQSEEARRLLGY [ISY1] please
a: no

q: // next record MEMKKKINLELRNRSPEEVTELVLDNCLCVNGEIEGLNDTFKELEFLSMANVELSSLARLPSLNKLRKLELSDNIISGGLEVLAEKCPNLTYLNLSGNKIKDLSTVEALQNLKNLKSLDLFNCEITNLEDYRESIFELLQQITYLDGFDQEDNEAPDSEEEDDEDGDEDDEEEEENEAGPPEGYEEEEEEEEEEDEDEDEDEDEAGSELGEGEEEVGLSYLMKEEIQDEEDDDDYVEEGEEEEEEEEGGLRGEKRKRDAEDDGEEEDD [ANP32E]
a: yes

q: Another: MSEKENNFPPLPKFIPVKPCFYQNFSDEIPVEHQVLVKRIYRLWMFYCATLGVNLIACLAWWIGGGSGTNFGLAFVWLLLFTPCGYVCWFRPVYKAFRADSSFNFMAFFFIFGAQFVLTVIQAIGFSGWGACGWLSAIGFFQYSPGAAVVMLLPAIMFSVSAAMMAIAIMKVHRIYRGAGGSFQKAQTEWNTGTWRNPPSREAQYNNFSGNSLPEYPTVPSYPGSGQWP [SCAMP4]
a: yes
